# Tested on: SW-620
# testSummary: Antiproliferative activity against human SW620 cells at 10 uM assessed as cell growth inhibition relative to control
# Format: functional
The source made the active and inactive calls. The calls are words filed in the database; no cut-off is given here.

structureSmiles	growth inhibition (GI)
[N-]=[N+]=NC[C@H]1O[C@@H](n2cnc3c(NC(=O)Nc4ccccc4)ncnc32)[C@@H]2OC(=O)C[C@@H]21	inactive
CNC(=O)NC[C@H]1O[C@@H](n2cnc3c(NC(=O)Nc4ccccc4)ncnc32)[C@@H]2OC(C)(C)O[C@@H]21	inactive
CNC(=O)NC[C@H]1O[C@@H](n2cnc3c(NC(=O)Nc4ccccc4)ncnc32)[C@@H]2OC(=O)C[C@@H]21	inactive
CNC(=O)NC[C@H]1O[C@@H](n2cnc3c(NC(=O)Nc4ccccc4)ncnc32)[C@H](O)[C@@H]1O	inactive

====

# Tested on: SK-MEL-2
# testSummary: Antiproliferative activity against human SK-MEL-2 cells at 10 uM assessed as cell growth inhibition relative to control
# Format: functional
# studyConditions: values are per cent of control
Could you please mark True for values of growth, % of control at 10 µM below 90% and False for values at or above it?

structureSmiles	classLabel
CCOC(=O)C[C@H]1[C@@H](O[Si](C)(C)C(C)(C)C)[C@H](n2cnc3c(N)ncnc32)O[C@@H]1COC(=O)NC	False
CCOC(=O)C[C@H]1[C@@H](O[Si](C)(C)C(C)(C)C)[C@H](n2cnc3c(N)ncnc32)O[C@@H]1CO	False
CNC(=O)NC[C@H]1O[C@@H](n2cnc3c(NC(=O)Nc4ccccc4)ncnc32)[C@H](O[Si](C)(C)C(C)(C)C)[C@@H]1O[Si](C)(C)C(C)(C)C	True
CCOC(=O)C=C1[C@@H](O[Si](C)(C)C(C)(C)C)[C@H](n2cnc3c(N)ncnc32)O[C@@H]1CNC(=O)NC	False

-- ask # strict comparison: is reported growth, % of control at 10 µM < 90%? input = CCOC(=O)C[C@H]1[C@@H](O[Si](C)(C)C(C)(C)C)[C@H](n2cnc3c(NC(=O)Nc4ccccc4)ncnc32)O[C@@H]1COC(=O)NC
-- reply True

====

# Test system: U-251
# testSummary: Antiproliferative activity against human U251 cells at 10 uM assessed as cell growth inhibition relative to control
# Assay type: functional
# studyConditions: values are per cent of control
For each of the compounds below, state its growth, % of control at 10 µM.
Answers are plain numbers, in %.

structureSmiles	growth, % of control at 10 µM [%]
CCOC(=O)C[C@H]1[C@@H](O[Si](C)(C)C(C)(C)C)[C@H](n2cnc3c(N)ncnc32)O[C@@H]1CO	99
CCOC(=O)C=C1[C@@H](O[Si](C)(C)C(C)(C)C)[C@H](n2cnc3c(N)ncnc32)O[C@@H]1CNC(=O)NC	53
CNC(=O)NC[C@H]1O[C@@H](n2cnc3c(NC(=O)Nc4ccccc4)ncnc32)[C@H](O[Si](C)(C)C(C)(C)C)[C@@H]1O[Si](C)(C)C(C)(C)C	17
CCOC(=O)C[C@H]1[C@@H](O[Si](C)(C)C(C)(C)C)[C@H](n2cnc3c(N)ncnc32)O[C@@H]1COC(=O)NC	86
CCOC(=O)C[C@H]1[C@@H](O[Si](C)(C)C(C)(C)C)[C@H](n2cnc3c(NC(=O)Nc4ccccc4)ncnc32)O[C@@H]1COC(=O)NC	52
CCOC(=O)C[C@H]1[C@@H](O[Si](C)(C)C(C)(C)C)[C@H](n2cnc3c(NC(=O)Nc4ccccc4)ncnc32)O[C@@H]1CN=[N+]=[N-]	95

-- ask Given the compound CCOC(=O)C[C@H]1[C@@H](O[Si](C)(C)C(C)(C)C)[C@H](n2cnc3c(N)ncnc32)O[C@@H]1CNC(=O)NC , what is its reported growth, % of control at 10 µM?
-- reply 98

====

# Tested on: HL-60(TB)
# testSummary: Antiproliferative activity against human HL-60(TB) cells at 10 uM assessed as cell growth inhibition relative to control
# Assay type: functional
# studyConditions: values are per cent of control
Mark MET for growth, % of control at 10 µM under 80%, NOT MET if at or over.

structureSmiles	classLabel
CCOC(=O)C[C@H]1[C@@H](O[Si](C)(C)C(C)(C)C)[C@H](n2cnc3c(NC(=O)Nc4ccccc4)ncnc32)O[C@@H]1CN=[N+]=[N-]	MET
CCOC(=O)C=C1[C@@H](O[Si](C)(C)C(C)(C)C)[C@H](n2cnc3c(N)ncnc32)O[C@@H]1CNC(=O)NC	MET
CCOC(=O)C[C@H]1[C@@H](O[Si](C)(C)C(C)(C)C)[C@H](n2cnc3c(NC(=O)Nc4ccccc4)ncnc32)O[C@@H]1COC(=O)NC	MET
CCOC(=O)C[C@H]1[C@@H](O[Si](C)(C)C(C)(C)C)[C@H](n2cnc3c(N)ncnc32)O[C@@H]1CNC(=O)NC	NOT MET
CNC(=O)NC[C@H]1O[C@@H](n2cnc3c(NC(=O)Nc4ccccc4)ncnc32)[C@H](O[Si](C)(C)C(C)(C)C)[C@@H]1O[Si](C)(C)C(C)(C)C	MET

Next compound, please.
-- ask Below 80% on growth, % of control at 10 µM? Entry CCOC(=O)C[C@H]1[C@@H](O[Si](C)(C)C(C)(C)C)[C@H](n2cnc3c(N)ncnc32)O[C@@H]1CO
-- reply NOT MET

====

# Tested on: PC-3
# testSummary: Antiproliferative activity against human PC3 cells at 10 uM assessed as cell growth inhibition relative to control
# Assay type: functional
# studyConditions: values are per cent of control
Label Criterion met when growth, % of control at 10 µM is strictly below 80%; otherwise label Criterion not met.

A selection of reference data follows.
structureSmiles	classLabel
CCOC(=O)C[C@H]1[C@@H](O[Si](C)(C)C(C)(C)C)[C@H](n2cnc3c(NC(=O)Nc4ccccc4)ncnc32)O[C@@H]1CN=[N+]=[N-]	Criterion met
CCOC(=O)C=C1[C@@H](O[Si](C)(C)C(C)(C)C)[C@H](n2cnc3c(N)ncnc32)O[C@@H]1CNC(=O)NC	Criterion not met
CNC(=O)NC[C@H]1O[C@@H](n2cnc3c(NC(=O)Nc4ccccc4)ncnc32)[C@H](O[Si](C)(C)C(C)(C)C)[C@@H]1O[Si](C)(C)C(C)(C)C	Criterion met
CCOC(=O)C[C@H]1[C@@H](O[Si](C)(C)C(C)(C)C)[C@H](n2cnc3c(N)ncnc32)O[C@@H]1COC(=O)NC	Criterion not met

-- ask Regarding CCOC(=O)C[C@H]1[C@@H](O[Si](C)(C)C(C)(C)C)[C@H](n2cnc3c(NC(=O)Nc4ccccc4)ncnc32)O[C@@H]1COC(=O)NC , kindly confirm whether its growth, % of control at 10 µM is beneath 80%.
-- reply Criterion met

-- ask A record lists CCOC(=O)C[C@H]1[C@@H](O[Si](C)(C)C(C)(C)C)[C@H](n2cnc3c(N)ncnc32)O[C@@H]1CNC(=O)NC . Is its growth, % of control at 10 µM below 80%?
-- reply Criterion not met

-- ask Lab log: compare recorded growth, % of control at 10 µM with 80%; is it strictly lower for CCOC(=O)C[C@H]1[C@@H](O[Si](C)(C)C(C)(C)C)[C@H](n2cnc3c(N)ncnc32)O[C@@H]1CO ?
-- reply Criterion not met

====

# Tested on: M14
# testSummary: Antiproliferative activity against human M14 cells at 10 uM assessed as cell growth inhibition relative to control
# Format: functional
# studyConditions: values are per cent of control
measuredAttribute: growth, % of control at 10 µM (%)
One number for each entry, in %.

Before answering, review these 5 worked examples.
structureSmiles	growth, % of control at 10 µM (%)
CCOC(=O)C[C@H]1[C@@H](O[Si](C)(C)C(C)(C)C)[C@H](n2cnc3c(NC(=O)Nc4ccccc4)ncnc32)O[C@@H]1COC(=O)NC	57
CCOC(=O)C[C@H]1[C@@H](O[Si](C)(C)C(C)(C)C)[C@H](n2cnc3c(N)ncnc32)O[C@@H]1CNC(=O)NC	106
CCOC(=O)C[C@H]1[C@@H](O[Si](C)(C)C(C)(C)C)[C@H](n2cnc3c(N)ncnc32)O[C@@H]1CO	99
CCOC(=O)C[C@H]1[C@@H](O[Si](C)(C)C(C)(C)C)[C@H](n2cnc3c(NC(=O)Nc4ccccc4)ncnc32)O[C@@H]1CN=[N+]=[N-]	101
CNC(=O)NC[C@H]1O[C@@H](n2cnc3c(NC(=O)Nc4ccccc4)ncnc32)[C@H](O[Si](C)(C)C(C)(C)C)[C@@H]1O[Si](C)(C)C(C)(C)C	33

Your task in this section: give growth, % of control at 10 µM for each listed record.
1. CCOC(=O)C[C@H]1[C@@H](O[Si](C)(C)C(C)(C)C)[C@H](n2cnc3c(N)ncnc32)O[C@@H]1COC(=O)NC
2. CCOC(=O)C=C1[C@@H](O[Si](C)(C)C(C)(C)C)[C@H](n2cnc3c(N)ncnc32)O[C@@H]1CNC(=O)NC

-- reply
100
87

Recorded values, source ChEMBL document CHEMBL1154382.
